Target under test: human muscarinic M3 receptor (Homo sapiens)
Construct: expressed in transfected cells
Assay notes: hM3 β-Lac potency assay (cell based β-lactamase)
Condition info: CHO cells expressing human M3 receptor, NFAT β-lactamase reporter; inhibition of 80 nM carbamyl choline signal, 4 h; IC50 converted to Ki by Cheng-Prusoff; read-out: Cell based β-lactamase M3 Ki
pKi: −log10 of the molar value.
Assay readout: pKi

// solved cases for pKi follow
>>> reported_result("CC(C)(CCC(C(N)=O)(c1ccccc1)c1ccccc1)N1CC[C@@H](Oc2cccc(O)c2Cl)C1 [Example 78]")
9.04
>>> reported_result("CC(C)(CCC(C#N)(c1ccccc1)c1ccccc1)N1CC[C@H](OCc2cccc(-c3ccc(O)cc3)c2)C1 [Example 62]")
7.24
>>> reported_result("CC(C)(CCC(C(N)=O)(c1ccccc1)c1ccccc1)N1CC[C@@H](OCc2ccc(Cl)c(O)c2)C1 [Example 79]")
7.79
>>> reported_result("Cc1cc(O)cc(O[C@H]2CCN(C(C)(C)CCC(C(N)=O)(c3ccccc3)c3ccccc3)C2)c1 [Example 29]")
8.65
>>> reported_result("CC(C)(CCC(C#N)(c1ccccc1)c1ccccc1)N1CCC(OCc2ccccc2)CC1 [Example 89]")
6.80
>>> reported_result("CC(C)(CCC(C(N)=O)(c1ccccc1)c1ccccc1)N1CC(OCc2ccc(O)cc2)C1 [Example 152]")
9.64

[a] CC(C)(CCC(C(N)=O)(c1ccccc1)c1ccccc1)N1CC[C@H](Oc2cc(O)cc(F)c2)C1 [Example 46]
[b] CC(C)(CCC(C(N)=O)(c1ccccc1)c1ccccc1)N1CC[C@@H](Oc2ccc(Cl)c(O)c2)C1 [Example 82]
So which one has the bigger pKi here, a or b ? Field: selected label. Fill in the label of the entry you choose. a

[a] CC(C)(CCC(C(N)=O)(c1ccccc1)c1ccccc1)N1CCC(OCc2ccccc2)CC1 [Example 92]
[b] CC(C)(CCC(C(N)=O)(c1ccccc1)c1ccccc1)N1CC[C@H](Oc2ccc3ccc(O)cc3c2)C1 [Example 70]
Given the listed records, identify the one among a and b with higher pKi. Answer by quoting the chosen item's label. a
(a: 8.67, b: 7.72)

[a] CC(C)(CCC(C(N)=O)(c1ccccc1)c1ccccc1)N1CC[C@@H](Oc2ccccc2)C1 [Example 4]
[b] COc1cc(Cl)ccc1O[C@H]1CCN(C(C)(C)CCC(C(N)=O)(c2ccccc2)c2ccccc2)C1 [Example 35]
[c] CC(C)(CCC(C(N)=O)(c1ccccc1)c1ccccc1)N1CC(OCc2ccc(O)c(Cl)c2)C1 [Example 146]
[d] CC(C)(CCC(C(N)=O)(c1ccccc1)c1ccccc1)N1CC(Oc2ccc(O)cc2)C1 [Example 107]
Order the records by pKi, with each subsequent value no larger than the one before. State the ranking by listing the labels in the requested order. d, c, a, b
(d: 9.88, c: 9.61, a: 8.81, b: 8.14)

###

Target under test: human muscarinic M3 receptor (Homo sapiens, UniProt P20309)
Construct: expressed in transfected cells
Sequence (P20309 whole entry): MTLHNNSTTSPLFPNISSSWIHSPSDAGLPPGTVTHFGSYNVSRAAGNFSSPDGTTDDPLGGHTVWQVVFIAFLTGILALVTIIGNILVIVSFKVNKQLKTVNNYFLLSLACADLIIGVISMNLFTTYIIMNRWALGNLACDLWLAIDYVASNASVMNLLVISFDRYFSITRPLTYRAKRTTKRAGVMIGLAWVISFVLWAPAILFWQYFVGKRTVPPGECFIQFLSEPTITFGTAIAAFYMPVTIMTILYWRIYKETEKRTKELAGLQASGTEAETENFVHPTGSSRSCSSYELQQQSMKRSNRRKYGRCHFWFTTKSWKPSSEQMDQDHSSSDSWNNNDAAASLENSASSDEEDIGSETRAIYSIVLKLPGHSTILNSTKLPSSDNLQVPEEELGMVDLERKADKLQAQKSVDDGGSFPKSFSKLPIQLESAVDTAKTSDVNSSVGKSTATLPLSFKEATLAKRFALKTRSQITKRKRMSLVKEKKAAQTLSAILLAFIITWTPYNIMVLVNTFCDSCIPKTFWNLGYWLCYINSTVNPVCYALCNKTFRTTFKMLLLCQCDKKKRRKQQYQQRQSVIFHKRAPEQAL
Assay notes: hM3 β-Lac potency assay (cell based β-lactamase)
Condition info: CHO cells expressing human M3 receptor, NFAT β-lactamase reporter; inhibition of 80 nM carbamyl choline signal, 4 h; IC50 converted to Ki by Cheng-Prusoff; read-out: Cell based β-lactamase M3 Ki
Assay readout: Ki (nM)

Before answering, review these 2 worked examples.
>>> reported_result("CC(C)(CCC(C(N)=O)(c1ccccc1)c1ccccc1)N1CC[C@H](Oc2cc(O)cc(C#N)c2)C1 [Example 68]")
9.88
>>> reported_result("CC(C)(CCC(C(N)=O)(c1ccccc1)c1ccccc1)N1CC(OCc2cccc(O)c2Cl)C1 [Example 148]")
0.353

[P] CC(C)(CCC(C(N)=O)(c1ccccc1)c1ccccc1)N1CC[C@H](OCc2cccc(-c3ccc(O)cc3)c2)C1 [Example 63]
[Q] CC(C)(CCC(C(N)=O)(c1ccccc1)c1ccccc1)N1CC[C@@H](OCc2ccc(F)c(O)c2)C1 [Example 67]
[R] CC(C)(CCC(C(N)=O)(c1ccccc1)c1ccccc1)N1CC(OCc2cccc(O)c2)C1 [Example 115]
[S] CC(C)(CCC(C(N)=O)(c1ccccc1)c1ccccc1)N1CC[C@@H](OCc2cccc(O)c2)C1 [Example 54]
[T] Cc1c(O)cccc1OC1CCN(C(C)(C)CCC(C(N)=O)(c2ccccc2)c2ccccc2)CC1 [Example 96]
Sequence the entries by Ki, beginning with the highest number. Please list the labels in the order you were asked to rank them. P, Q, T, S, R
(P: 28.7 nM, Q: 10.7 nM, T: 6.51 nM, S: 3.62 nM, R: 0.176 nM)

###

Target under test: human muscarinic M3 receptor (Homo sapiens, UniProt P20309)
Construct: expressed in transfected cells
Assay notes: hM3 β-Lac potency assay (cell based β-lactamase)
Condition info: CHO cells expressing human M3 receptor, NFAT β-lactamase reporter; inhibition of 80 nM carbamyl choline signal, 4 h; IC50 converted to Ki by Cheng-Prusoff; read-out: Cell based β-lactamase M3 Ki
pKi: −log10 of the molar value.
Assay readout: pKi

These solved cases illustrate the format of a correct answer.
>>> reported_result("CC(C)(CCC(C(N)=O)(c1ccccc1)c1ccccc1)N1CC[C@@H](Oc2ccc(C#N)c(O)c2)C1")
7.52
>>> reported_result("CC(C)(CCC(C(N)=O)(c1ccccc1)c1ccccc1)N1CCC(Oc2cc(O)c(Cl)cc2Cl)CC1")
7.57
>>> reported_result("CC(C)(CCC(C(N)=O)(c1ccccc1)c1ccccc1)N1CC(OCc2ccc(Cl)c(O)c2)C1")
9.33

[P] CC(C)(CCC(C(N)=O)(c1ccccc1)c1ccccc1)N1CC(Oc2cc(O)ccc2Cl)C1
[Q] COc1cccc(OC2CN(C(C)(C)CCC(C(N)=O)(c3ccccc3)c3ccccc3)C2)c1
[R] Cc1cccc(O[C@H]2CCN(C(C)(C)CCC(C(N)=O)(c3ccccc3)c3ccccc3)C2)c1
Rank the items in ascending order with respect to pKi. Reply format: the labels, ordered as requested. P, R, Q
(P: 7.39, R: 8.88, Q: 9.37)
